System: Candida albicans ATCC 44859
run description: In vitro antifungal broth microdilution test
Format: cell-based
condition description: Candida albicans, ATCC44859; 24h, RPMI 1640, pH 7.0, 35 °C; read-out: MIC/IC80 CA
observable: MIC

Example results:
Enquiry: Give MIC for the following compound: O=C(O)c1cc2c(O)cc(=O)[nH]c2cc1O [Compound 4]
Return: 15.6 µM

Enquiry: Read off the recorded MIC for O=C(O)c1ccc2[nH]c(=O)cc(O)c2c1O [Compound 3]
Return: 125 µM

Further cases:
Enquiry: Check the records and state MIC for Nc1c(O)c2ccccc2[nH]c1=O [Compound 6, 3-Amino-4-hydroxyquinolin-2(1H)-one]
Return: > 500 µM

Enquiry: Return MIC (reported value) for this compound: O=C(/C=C/c1ccccc1)Nc1c(O)c2ccccc2[nH]c1=O [Compound 7]
Return: > 125 µM

###

run description: Lipophilicity HPLC determination (capacity factor k / log k)
Assay type: physicochemical
condition description: RP-HPLC, C18 column, MeOH 55.0% / H2O 45.0%, isocratic
Parameter log k: see the listing below.
Output spec: single numeric token, no unit.

Some compounds with recorded log k:
Enquiry: Write down log k measured for item O=C(O)c1cc2c(O)cc(=O)[nH]c2cc1O
Return: 0.0080

Enquiry: Tell me measured log k for Nc1c(O)c2ccccc2[nH]c1=O [Compound 6, 3-Amino-4-hydroxyquinolin-2(1H)-one] please.
Return: 0.0004

Enquiry: Let me know recorded log k for O=c1cc(O)c2ccccc2[nH]1 [Compound 1, 4-Hydroxyquinolin-2(1H)-one] , thanks.
Return: 0.0664

Enquiry: Dear colleague, please send me the reported log k for O=C(O)c1c(O)c2ccccc2[nH]c1=O when you can.
Return: 0.0118

Enquiry: Please report log k for the following compound: O=C(O)c1ccc(NC(=O)c2c(O)c3cc(C(=O)O)ccc3[nH]c2=O)cc1
Return: 0.0081

New cases:
Enquiry: Output measured log k for this item: CCOC(=O)c1c(O)c2ccccc2[nH]c1=O
Return: 0.4595

Enquiry: Please give measured log k of the following entry: O=C(/C=C/c1ccccc1)Nc1c(O)c2ccccc2[nH]c1=O
Return: 0.0128

Enquiry: Using the record for O=c1[nH]c2ccccc2c(O)c1[N+](=O)[O-] [Compound 5, 4-Hydroxy-3-nitroquinolin-2(1H)-one] , state its measured log k.
Return: 0.4052

Enquiry: In one line, give reported log k of the entry Cc1ccc2[nH]c(=O)cc(O)c2c1 [Compound 2, 4-Hydroxy-6-methylquinolin-2(1H)-one] .
Return: 0.3307

Enquiry: Given O=C(O)c1ccc2[nH]c(=O)c(/N=N/c3cc(Cl)c([N+](=O)[O-])cc3Cl)c(O)c2c1 , respond with its log k.
Return: 0.6394

Enquiry: Could you please provide reported log k for O=C(O)c1ccc2[nH]c(=O)cc(O)c2c1O ? Thanks!
Return: 0.0002

###

Tested on: Candida krusei ATCC 6258
run description: In vitro antifungal broth microdilution test
Type: cell-based
condition description: Pichia kudriavzevii, ATCC6258; 48h, RPMI 1640, pH 7.0, 35 °C; read-out: MIC/IC80 CK
observable: MIC

Enquiry: # return MIC for O=C(O)c1cc2c(O)cc(=O)[nH]c2cc1O , test system: Candida krusei ATCC 6258
Return: > 500 µM

***
Enquiry: Fill in MIC for O=c1[nH]c2ccccc2c(O)c1[N+](=O)[O-] [Compound 5, 4-Hydroxy-3-nitroquinolin-2(1H)-one] tested with Candida krusei ATCC 6258.
Return: > 500 µM

Enquiry: Send back Candida krusei ATCC 6258 MIC of OC(Cn1cncn1)(Cn1cncn1)c1ccc(F)cc1F [FLU, Fluconazole, reference compound] only.
Return: 15.6 µM

Enquiry: Retrieve MIC on Candida krusei ATCC 6258; query Cc1ccc2[nH]c(=O)cc(O)c2c1 [Compound 2, 4-Hydroxy-6-methylquinolin-2(1H)-one]
Return: > 500 µM

Enquiry: Report MIC on Candida krusei ATCC 6258 for this entry: O=C(O)c1ccc2[nH]c(=O)cc(O)c2c1O
Return: > 500 µM

# credit: paper PMC6253998
